Cited source: patent US20180320217A1

Test system: oral lavage
assay-method-text: Formation of formazan dyes: oral lavage, malate and diaphorase (TABLE 12)
Format: biochemical, human
test-parameters: oral lavage, malate and diaphorase; 6 h
Form field: Formation of formazan dyes, absorbance, Means 6 h (one value per entry).
recorded-endpoint: Formation of formazan dyes, absorbance, Means 6 h

1) COc1cc([N+](=O)[O-])c(S(=O)(=O)[O-])cc1-n1nc(C(=O)Nc2ccccc2)n[n+]1-c1cc(S(=O)(=O)O)c([N+](=O)[O-])cc1OC = 1.41
2) COc1cc([N+](=O)[O-])ccc1-[n+]1nc(-c2ccc(S(=O)(=O)[O-])cc2S(=O)(=O)[O-])nn1-c1ccc([N+](=O)[O-])cc1.[Na+] = 0.91
3) O=[N+]([O-])c1ccc(-[n+]2nc(-c3ccc(S(=O)(=O)[O-])cc3S(=O)(=O)[O-])nn2-c2ccc(I)cc2)cc1.[Na+] = 1.31
4) COc1cc(-c2ccc(-[n+]3nc(-c4ccc(C(=O)N(CCS(=O)(=O)[O-])CCS(=O)(=O)[O-])cc4)nn3-c3nc4ccccc4s3)c(OC)c2)ccc1-[n+]1nc(-c2ccc(C(=O)N(CCS(=O)(=O)[O-])CCS(=O)(=O)[O-])cc2)nn1-c1nc2ccccc2s1.[Na+].[Na+] = 0.85
5) Cc1nc(-[n+]2nc(-c3cccc(OCC(=O)O)c3)nn2-c2ccc(S(=O)(=O)[O-])cc2)sc1C = 1.56

---

Tested on: diaphorase
assay-method-text: Formation of formazan dyes: NADH and diaphorase, absence of malate (TABLE 7)
Type: biochemical, Clostridium kluyveri
test-parameters: NADH and diaphorase, absence of malate; 4 h
Form field: Formation of formazan dyes, absorbance, Means 4 h (one value per entry).
recorded-endpoint: Formation of formazan dyes, absorbance, Means 4 h

1) COc1cc([N+](=O)[O-])ccc1-[n+]1nc(-c2ccc(S(=O)(=O)[O-])cc2S(=O)(=O)[O-])nn1-c1ccc([N+](=O)[O-])cc1.[Na+] = 3.63
2) O=[N+]([O-])c1ccc(-[n+]2nc(-c3ccc(S(=O)(=O)[O-])cc3S(=O)(=O)[O-])nn2-c2ccc(I)cc2)cc1.[Na+] = 3.59
3) COc1cc(-c2ccc(-[n+]3nc(-c4ccc(C(=O)N(CCS(=O)(=O)[O-])CCS(=O)(=O)[O-])cc4)nn3-c3nc4ccccc4s3)c(OC)c2)ccc1-[n+]1nc(-c2ccc(C(=O)N(CCS(=O)(=O)[O-])CCS(=O)(=O)[O-])cc2)nn1-c1nc2ccccc2s1.[Na+].[Na+] = 2.86
4) COc1cc([N+](=O)[O-])c(S(=O)(=O)[O-])cc1-n1nc(C(=O)Nc2ccccc2)n[n+]1-c1cc(S(=O)(=O)O)c([N+](=O)[O-])cc1OC = 2.40
5) Cc1nc(-[n+]2nc(-c3cccc(OCC(=O)O)c3)nn2-c2ccc(S(=O)(=O)[O-])cc2)sc1C = 3.27

---

Test system: diaphorase
assay-method-text: Formation of formazan dyes: only diaphorase, not malate (TABLE 13)
Type: biochemical, Clostridium kluyveri
test-parameters: 2 h, mean of three experiments
recorded-endpoint: Absorbance, formation of formazan dyes (Means)

1) O=[N+]([O-])c1ccc(-[n+]2nc(-c3ccc(S(=O)(=O)[O-])cc3S(=O)(=O)[O-])nn2-c2ccc(I)cc2)cc1.[Na+] = 0.66
2) Cc1nc(-[n+]2nc(-c3cccc(OCC(=O)O)c3)nn2-c2ccc(S(=O)(=O)[O-])cc2)sc1C = 0.26
3) COc1cc([N+](=O)[O-])ccc1-[n+]1nc(-c2ccc(S(=O)(=O)[O-])cc2S(=O)(=O)[O-])nn1-c1ccc([N+](=O)[O-])cc1.[Na+] = 0.46
4) COc1cc([N+](=O)[O-])c(S(=O)(=O)[O-])cc1-n1nc(C(=O)Nc2ccccc2)n[n+]1-c1cc(S(=O)(=O)O)c([N+](=O)[O-])cc1OC = 0.52
5) COc1cc(-c2ccc(-[n+]3nc(-c4ccc(C(=O)N(CCS(=O)(=O)[O-])CCS(=O)(=O)[O-])cc4)nn3-c3nc4ccccc4s3)c(OC)c2)ccc1-[n+]1nc(-c2ccc(C(=O)N(CCS(=O)(=O)[O-])CCS(=O)(=O)[O-])cc2)nn1-c1nc2ccccc2s1.[Na+].[Na+] = 0.35
